System: CHO
Experiment: Cytotoxicity against CHO cells assessed as reduction in cell viability by MTT assay
Assay type: cell-based, Cricetulus griseus
Conditions: chinese hamster
ATTRIBUTE_MEASURED: CC50 (µM)
Provide the reading as a plain figure in µM.

Please review the entries below; each comes with its answer.
{"QUERY_SMILES": "CN1CCN(C2CCN(c3nccc4[nH]c(-c5cc(F)cc(F)c5)nc34)CC2)CC1", "ATTRIBUTE_MEASURED": "CC50", "UNIT_TEXT": "µM", "EXPERIMENTAL_RESULT": 30}
{"QUERY_SMILES": "Fc1cc(F)cc(-c2nc3c(N4CCC(CN5CCN(CC(F)(F)F)CC5)CC4)nccc3[nH]2)c1", "ATTRIBUTE_MEASURED": "CC50", "UNIT_TEXT": "µM", "EXPERIMENTAL_RESULT": 40}
{"QUERY_SMILES": "Fc1ccc(-c2nc3c(N4CCC(CN5CCOCC5)CC4)nccc3[nH]2)cc1F", "ATTRIBUTE_MEASURED": "CC50", "UNIT_TEXT": "µM", "EXPERIMENTAL_RESULT": 35}

# next compound below
(Q) Find the recorded CC50 belonging to Fc1ccc(-c2nc3c(N4CCN(CC(F)(F)F)CC4)nccc3[nH]2)cc1F and report it.
(A) 39

###

Test system: CHO
Test: Cytotoxicity against CHO cells assessed as reduction in cell viability by MTT assay
Type: cell-based, Cricetulus griseus
Conditions: chinese hamster
Each entry below carries its recorded log10 CC50.
Answers are given as log10 of CC50 in µM.

A selection of reference data follows.
{"QUERY_SMILES": "CN1CCC(N2CCCN(c3nccc4[nH]c(-c5ccc(F)c(F)c5)nc34)CC2)CC1", "log10 CC50": 1.23}
{"QUERY_SMILES": "CN1CCN(C2CCN(c3nccc4[nH]c(-c5ccc(F)c(F)c5)nc34)CC2)CC1", "log10 CC50": 0.70}
{"QUERY_SMILES": "Fc1ccc(-c2nc3c(N4CCNCC4)nccc3[nH]2)cc1F", "log10 CC50": 0.91}

(Q) Quick one: log10 CC50 for CN1CCN(CC2CCN(c3nccc4[nH]c(-c5ccc(F)c(F)c5)nc34)CC2)CC1 ?
(A) 0.87

(Q) What about this compound? CN1CCN(CC2CCN(c3cccc4[nH]c(-c5cc(F)cc(F)c5)nc34)CC2)CC1
(A) 1.34

(Q) Cool, now NCC1CCN(c2nccc3[nH]c(-c4cccc(OC(F)(F)F)c4)nc23)CC1
(A) 0.46

(Q) What would you report for COC(=O)c1cccc(-c2nc3c(N4CCC(N5CCN(C)CC5)CC4)nccc3[nH]2)c1 ?
(A) 1.53

###

Test: Tmax in Plasmodium falciparum 3D70087/N9 infected NSG mouse at 1.5 mg/kg, po by LC-MS/MS analysis
Format: ADME, organism-based
Settings: in vivo
ATTRIBUTE_MEASURED: Tmax (h)
Field format: number, assumed h, no unit text.

(Q) Find the recorded Tmax belonging to CN1CCN(CC2CCN(c3nccc4[nH]c(-c5cc(F)cc(F)c5)nc34)CC2)CC1 and report it.
(A) 1.5

###

Experiment: Tmax in Balb/C mouse at 20 mg/kg, po by LC-MS/MS analysis
Assay type: ADME, organism-based
Settings: in vivo
ATTRIBUTE_MEASURED: Tmax (h)
Express your answer in h, writing the number without its unit.

# example entries with known answers
{"QUERY_SMILES": "Cn1ccnc1N1CCN(CC2CCN(c3nccc4[nH]c(-c5cc(F)cc(F)c5)nc34)CC2)CC1", "UNIT_TEXT": "h", "Tmax": 2.3}
{"QUERY_SMILES": "Fc1ccc(-c2nc3c(N4CCC(CN5CCOCC5)CC4)nccc3[nH]2)cc1F", "UNIT_TEXT": "h", "Tmax": 0.7}
{"QUERY_SMILES": "CN1CCN(C2CCN(c3nccc4[nH]c(-c5cc(F)cc(F)c5)nc34)CC2)CC1", "UNIT_TEXT": "h", "Tmax": 1.5}
{"QUERY_SMILES": "CN1CCC(N2CCN(c3nccc4[nH]c(-c5ccc(F)c(F)c5)nc34)CC2)CC1", "UNIT_TEXT": "h", "Tmax": 2.3}

Moving on to another compound below.
(Q) Which measured Tmax value corresponds to CN1CCN(CC2CCN(c3nccc4[nH]c(-c5cc(F)cc(F)c5)nc34)CC2)CC1 ?
(A) 1.7

###

Quick reference: pKa of the listed items.
Experiment: Dissociation constant, pKa of compound
Format: physicochemical
Kindly provide the number alone.

{"QUERY_SMILES": "Fc1cc(F)cc(-c2nc3c(N4CCC(N5CCOCC5)CC4)nccc3[nH]2)c1", "ATTRIBUTE_MEASURED": "pKa", "EXPERIMENTAL_RESULT": 7.4}

Please turn your attention to the following entry.
(Q) I would be grateful if you could share the reported pKa for Fc1cc(F)cc(-c2cc3c(N4CCC(N5CCOCC5)CC4)nccc3[nH]2)c1 .
(A) 8.2

###

Assay: Cmax in Plasmodium falciparum 3D70087/N9 infected NSG mouse at 5 mg/kg, po by LC-MS/MS analysis
Type: ADME, organism-based
Design: route oral, dose 5 mg/kg
Conditions: in vivo
ATTRIBUTE_MEASURED: Cmax (nM)
Give the number; nM is assumed, so skip it.

(Q) Please report the recorded Cmax for CN1CCN(CC2CCN(c3nccc4[nH]c(-c5cc(F)cc(F)c5)nc34)CC2)CC1 .
(A) 130

###

Assay: AUC (0 to 24 hrs) in Plasmodium falciparum 3D70087/N9 infected NSG mouse at 200 mg/kg, po by LC-MS/MS analysis
Format: ADME, organism-based
Parameters: time < 24 hr, route oral, dose 200 mg/kg
Conditions: in vivo
ATTRIBUTE_MEASURED: AUC(0-t) at 24 h (µM·h)
Write the answer as a number in µM·h, unit excluded.

(Q) For the compound CN1CCN(CC2CCN(c3nccc4[nH]c(-c5cc(F)cc(F)c5)nc34)CC2)CC1 , what AUC(0-t) at 24 h is on record?
(A) 51.7

###

Experiment: Cmax in Balb/C mouse at 10 mg/kg, po by LC-MS/MS analysis
Type: ADME, organism-based
Set-up: route oral, dose 10 mg/kg
Conditions: in vivo
ATTRIBUTE_MEASURED: Cmax (nM)
Give your result in nM as a bare value.

(Q) Form field: reported Cmax of CN1CCN(CC2CCN(c3cncc4[nH]c(-c5cc(F)cc(F)c5)nc34)CC2)CC1
(A) 400

###

Test: Ratio of unbound average drug concentration in Balb/c mouse at 20 mg/kg, po measured at 24 hrs to IC50 for antiplasmodial activity against multidrug-sensitive Plasmodium falciparum NF54 asexual blood stage assessed as reduction in parasite growth after 72 hrs by LDH assay
Assay type: organism-based
Conditions: in vivo
Entries and their Ratio values follow.
Respond numerically, and do not add a unit to the figure.

// worked examples, Ratio included
{"QUERY_SMILES": "CN1CCC(N2CCN(c3nccc4[nH]c(-c5ccc(F)c(F)c5)nc34)CC2)CC1", "Ratio": 0.9}
{"QUERY_SMILES": "CN1CCN(C2CCN(c3nccc4[nH]c(-c5cc(F)cc(F)c5)nc34)CC2)CC1", "Ratio": 2.5}
{"QUERY_SMILES": "Fc1ccc(-c2nc3c(N4CCC(CN5CCOCC5)CC4)nccc3[nH]2)cc1F", "Ratio": 4.6}

(Q) Which Ratio value belongs to Cn1ccnc1N1CCN(CC2CCN(c3nccc4[nH]c(-c5cc(F)cc(F)c5)nc34)CC2)CC1 ?
(A) 1.5

(Q) Same for CN1CCN(CC2CCN(c3nccc4[nH]c(-c5cc(F)cc(F)c5)nc34)CC2)CC1
(A) 4.5

###

Assay: Tmax in Plasmodium falciparum 3D70087/N9 infected NSG mouse at 50 mg/kg, po by LC-MS/MS analysis
Assay type: ADME, organism-based
Conditions: in vivo
ATTRIBUTE_MEASURED: Tmax (h)
Numeric only. Scale: h

(Q) Reported Tmax for CN1CCN(CC2CCN(c3nccc4[nH]c(-c5cc(F)cc(F)c5)nc34)CC2)CC1 : what is it?
(A) 12.5

###

Reported solubility thermodynamic at 20 h is given for each of the following compounds.
Assay: Aqueous solubility of compound in phosphate buffer saline at pH 6.5 incubated for 20 hrs under shaking condition by shake-flask method based HPLC-DAD analysis
Assay type: physicochemical
Conditions: phosphate buffered saline
The figure you give is taken to be in µM; do not add the unit.

For orientation, consider the following solved cases.
{"QUERY_SMILES": "CN1CCN(CC2CCN(c3nccc4[nH]c(-c5cc(F)cc(F)c5)cc34)CC2)CC1", "UNIT_TEXT": "µM", "solubility thermodynamic at 20 h": 140}
{"QUERY_SMILES": "CN1CCC(N2CCN(c3nccc4[nH]c(-c5ccc(F)c(F)c5)nc34)CC(F)(F)C2)CC1", "UNIT_TEXT": "µM", "solubility thermodynamic at 20 h": 180}
{"QUERY_SMILES": "CN1CCN(CC2CCN(c3nccc4[nH]c(-c5cccc(C(=O)O)c5)nc34)CC2)CC1", "UNIT_TEXT": "µM", "solubility thermodynamic at 20 h": 195}
{"QUERY_SMILES": "Fc1ccc(-c2nc3c(N4CCCN(CC5CC5)CC4)nccc3[nH]2)cc1F", "UNIT_TEXT": "µM", "solubility thermodynamic at 20 h": 200}
{"QUERY_SMILES": "C[C@@H]1CN(c2nccc3[nH]c(-c4ccc(F)c(F)c4)nc23)C[C@H](C)N1C", "UNIT_TEXT": "µM", "solubility thermodynamic at 20 h": 50}
{"QUERY_SMILES": "CN1CCN(CC2CCN(c3ncnc4[nH]c(-c5cc(F)cc(F)c5)nc34)CC2)CC1", "UNIT_TEXT": "µM", "solubility thermodynamic at 20 h": 55}
{"QUERY_SMILES": "Fc1cc(F)cc(-c2nc3c(N4CCC(CN5CCNCC5)CC4)nccc3[nH]2)c1", "UNIT_TEXT": "µM", "solubility thermodynamic at 20 h": 190}

(Q) Give its solubility thermodynamic at 20 h value. Item: Fc1ccc(-c2nc3c(N4CCNCC4)nccc3[nH]2)cc1F
(A) 150
